# System: Retinoic acid receptor RXR-alpha/oxysterols receptor LXR-beta (Homo sapiens, UniProt P55055)
# Sequence (P19793 whole entry): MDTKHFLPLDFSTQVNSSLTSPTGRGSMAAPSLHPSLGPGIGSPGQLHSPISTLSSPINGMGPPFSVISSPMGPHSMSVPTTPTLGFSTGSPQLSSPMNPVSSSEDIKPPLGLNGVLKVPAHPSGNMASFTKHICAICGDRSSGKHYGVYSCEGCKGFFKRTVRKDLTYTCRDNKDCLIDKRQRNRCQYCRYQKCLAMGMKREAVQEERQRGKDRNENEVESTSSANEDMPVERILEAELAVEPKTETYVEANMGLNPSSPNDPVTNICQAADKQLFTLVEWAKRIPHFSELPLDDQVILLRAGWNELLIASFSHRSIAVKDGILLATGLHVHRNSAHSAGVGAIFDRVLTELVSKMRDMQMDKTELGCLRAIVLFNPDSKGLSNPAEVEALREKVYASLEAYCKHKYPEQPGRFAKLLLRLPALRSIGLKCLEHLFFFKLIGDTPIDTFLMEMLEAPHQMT
# Sequence (P55055 whole entry): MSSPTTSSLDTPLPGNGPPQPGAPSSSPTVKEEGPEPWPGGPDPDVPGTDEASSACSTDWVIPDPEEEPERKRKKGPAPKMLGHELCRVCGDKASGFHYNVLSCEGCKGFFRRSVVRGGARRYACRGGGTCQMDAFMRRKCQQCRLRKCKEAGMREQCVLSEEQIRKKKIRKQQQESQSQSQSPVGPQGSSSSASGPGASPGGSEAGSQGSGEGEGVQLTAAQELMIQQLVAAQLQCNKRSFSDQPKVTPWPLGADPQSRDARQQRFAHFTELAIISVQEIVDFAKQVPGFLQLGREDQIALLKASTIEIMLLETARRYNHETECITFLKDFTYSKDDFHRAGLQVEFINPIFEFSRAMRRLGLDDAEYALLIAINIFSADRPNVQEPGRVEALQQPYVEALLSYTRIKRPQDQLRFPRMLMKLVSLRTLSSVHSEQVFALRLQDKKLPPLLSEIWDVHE
# Measurement description: Binding affinity to LXRbeta-RXRalpha heterodimer (unknown origin) expressed in insect cells by scintillation proximity assay
Measurement label: Ki (nM)

Compound	Ki [nM]
CS(=O)(=O)c1cccc(-c2ccc(-c3cc(C(F)(F)F)c(C#N)c(=O)n3Cc3ccc(F)cc3F)s2)c1	11

A = CS(=O)(=O)c1cccc(-c2ccc(-c3cc(C(F)(F)F)nn3-c3ccccc3Cl)cc2)c1
B = CC(C)(O)c1cn(-c2ccc(-c3cccc(S(C)(=O)=O)c3)cc2)c(Cc2ccccc2Cl)n1
C = CC(C)(O)c1cn(-c2ccc(-c3cccc(S(C)(=O)=O)c3)cc2)c(Cc2ccccc2C(F)(F)F)n1
### Prompt Ascending by Ki, please. Thanks in advance for listing the labels in the requested order.
### Response B, C, A

P = CS(=O)(=O)c1cccc(-c2ccc(-c3cc(C(F)(F)F)nn3Cc3ccc(F)cc3F)s2)c1
Q = CS(=O)(=O)c1cccc(-c2ccc(-n3cc(C(F)(F)F)nc3-c3ccccc3Cl)cc2)c1
### Prompt Problem: Given the entries P and Q , determine which has the lower reported Ki. Which one? Tell me its label.
### Response P
(P: 7 nM, Q: 11 nM)

###

# System: Oxysterols receptor LXR-alpha (Homo sapiens, UniProt Q13133)
# Sequence (Q13133 whole entry): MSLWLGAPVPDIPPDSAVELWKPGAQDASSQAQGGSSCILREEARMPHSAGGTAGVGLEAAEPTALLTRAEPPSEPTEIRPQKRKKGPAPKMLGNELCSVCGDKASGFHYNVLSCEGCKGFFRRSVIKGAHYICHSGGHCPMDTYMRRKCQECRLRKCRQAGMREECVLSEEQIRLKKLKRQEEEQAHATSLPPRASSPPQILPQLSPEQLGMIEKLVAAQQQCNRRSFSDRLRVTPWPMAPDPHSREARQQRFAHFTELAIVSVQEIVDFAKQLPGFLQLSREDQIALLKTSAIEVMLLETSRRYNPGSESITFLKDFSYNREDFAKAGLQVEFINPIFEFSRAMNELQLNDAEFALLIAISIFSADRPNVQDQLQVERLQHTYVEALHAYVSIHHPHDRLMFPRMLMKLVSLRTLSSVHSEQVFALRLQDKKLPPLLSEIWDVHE
# Measurement description: Transactivation of LXRalpha (unknown origin) expressed in CV1 cells by luciferase reporter gene assay
Measurement label: EC50 (nM)

# count of solved cases: 5
CC(C)(O)c1cn(-c2ccc(-c3cccc(S(C)(=O)=O)c3)cc2)c(Cc2ccccc2Cl)n1 85
CS(=O)(=O)c1cccc(-c2ccc(-c3cc(C(F)(F)F)nn3-c3ccccc3Cl)s2)c1 140
CC(C)(O)c1cn(-c2ccc(-c3cccc(S(C)(=O)=O)c3)cc2)c(Cc2ccccc2C(F)(F)F)n1 200
CS(=O)(=O)c1cccc(-c2ccc(-c3cc(C(F)(F)F)c(C#N)c(=O)n3Cc3ccc(F)cc3F)s2)c1 4
Cc1cc(CC(=O)O)ccc1-c1ccc(-c2cc(C(F)(F)F)c(C#N)c(=O)n2Cc2ccc(F)cc2F)s1 570

1 = CS(=O)(=O)c1cccc(-c2cccc(-c3cc(C(F)(F)F)nn3-c3ccccc3Cl)c2)c1
2 = CS(=O)(=O)c1cccc(-c2ccc(-c3cc(C(F)(F)F)nn3-c3ccccc3C(F)(F)F)s2)c1
### Prompt Hey, between 1 and 2 which has a smaller measured EC50? Write down the label of the entry you select.
### Response 2

###

# Measurement description: Plasma concentration in mouse at 30 mg/kg, po measured at 24 hrs post dose
# Assay type: ADME, organism-based
# Parameters: dose 30 mg/kg, route oral
Measurement label: concentration at 24 h (nM)

Use these answered entries as a reference point.
CC(C)(O)c1cn(-c2ccc(-c3cccc(S(C)(=O)=O)c3)cc2)c(Cc2ccccc2C(F)(F)F)n1 20
CC(C)(O)c1cn(-c2ccc(-c3cccc(S(C)(=O)=O)c3)cc2)c(C(C)(C)c2ccccc2Cl)n1 40
CS(=O)(=O)c1cccc(-c2ccc(-n3cc(C(F)(F)F)nc3-c3ccccc3Cl)cc2)c1 2300

1 = CC(C)(O)c1cn(-c2ccc(-c3cccc(S(C)(=O)=O)c3)cc2)c(-c2ccccc2Cl)n1
2 = CS(=O)(=O)c1cccc(-c2cccc(-c3cc(C(F)(F)F)nn3-c3ccccc3Cl)c2)c1
### Prompt Which is greater in concentration at 24 h, the first item 1 or the second item 2 ? Kindly give the label for the entry you pick.
### Response 1
(1: 2000 nM, 2: 300 nM)

###

# System: Retinoic acid receptor RXR-alpha/oxysterols receptor LXR-alpha (Homo sapiens)
# Sequence (P19793 whole entry, one chain of several): as the sequence (P19793 whole entry) above
# Measurement description: Binding affinity to LXRalpha-RXRalpha heterodimer (unknown origin) expressed in insect cells by scintillation proximity assay
pKi: −log10 of the molar value.
Measurement label: pKi

I = CC(C)(O)c1cn(-c2ccc(-c3cccc(S(C)(=O)=O)c3)cc2)c(-c2ccccc2Cl)n1
II = CS(=O)(=O)c1cccc(-c2ccc(-c3cc(C(F)(F)F)nn3-c3ccccc3C(F)(F)F)s2)c1
III = CC(C)(O)c1cn(-c2ccc(-c3cccc(S(C)(=O)=O)c3)cc2)c(-c2c(Cl)cccc2Cl)n1
IV = CS(=O)(=O)c1cccc(-c2ccc(-c3cc(C(F)(F)F)nn3-c3ccccc3Cl)s2)c1
V = N#Cc1c(C(F)(F)F)cc(-c2ccc(Oc3ccccc3)cc2)n(Cc2ccc(F)cc2F)c1=O
### Prompt Rank the listed molecules according to pKi, from the largest value downward. // list labels; follow requested order
### Response V, IV, II, I, III
(V: 7.59, IV: 7.17, II: 6.62, I: 5.80, III: 5.60)

###

# Measurement description: Plasma concentration in mouse at 30 mg/kg, po measured at 24 hrs post dose
# Type: ADME, organism-based
# Design: dose 30 mg/kg, route oral
Measurement label: concentration at 24 h (nM)

CS(=O)(=O)c1cccc(-c2ccc(-c3cc(C(F)(F)F)nn3-c3ccccc3C(F)(F)F)s2)c1 4100

a = CC(C)(O)c1cn(-c2ccc(-c3cccc(S(C)(=O)=O)c3)cc2)c(-c2c(Cl)cccc2Cl)n1
b = CC(C)(O)c1cn(-c2ccc(-c3cccc(S(C)(=O)=O)c3)cc2)c(Cc2ccccc2Cl)n1
### Prompt Could you check which of a and b has a smaller value for concentration at 24 h? Please identify the chosen entry by its label.
### Response b
